target: Phosphatidylinositol 4,5-bisphosphate 3-kinase catalytic subunit alpha isoform (Homo sapiens, UniProt P42336); experiment: Inhibition of PI3Kalpha
Sequence (P42336 whole entry, canonical isoform): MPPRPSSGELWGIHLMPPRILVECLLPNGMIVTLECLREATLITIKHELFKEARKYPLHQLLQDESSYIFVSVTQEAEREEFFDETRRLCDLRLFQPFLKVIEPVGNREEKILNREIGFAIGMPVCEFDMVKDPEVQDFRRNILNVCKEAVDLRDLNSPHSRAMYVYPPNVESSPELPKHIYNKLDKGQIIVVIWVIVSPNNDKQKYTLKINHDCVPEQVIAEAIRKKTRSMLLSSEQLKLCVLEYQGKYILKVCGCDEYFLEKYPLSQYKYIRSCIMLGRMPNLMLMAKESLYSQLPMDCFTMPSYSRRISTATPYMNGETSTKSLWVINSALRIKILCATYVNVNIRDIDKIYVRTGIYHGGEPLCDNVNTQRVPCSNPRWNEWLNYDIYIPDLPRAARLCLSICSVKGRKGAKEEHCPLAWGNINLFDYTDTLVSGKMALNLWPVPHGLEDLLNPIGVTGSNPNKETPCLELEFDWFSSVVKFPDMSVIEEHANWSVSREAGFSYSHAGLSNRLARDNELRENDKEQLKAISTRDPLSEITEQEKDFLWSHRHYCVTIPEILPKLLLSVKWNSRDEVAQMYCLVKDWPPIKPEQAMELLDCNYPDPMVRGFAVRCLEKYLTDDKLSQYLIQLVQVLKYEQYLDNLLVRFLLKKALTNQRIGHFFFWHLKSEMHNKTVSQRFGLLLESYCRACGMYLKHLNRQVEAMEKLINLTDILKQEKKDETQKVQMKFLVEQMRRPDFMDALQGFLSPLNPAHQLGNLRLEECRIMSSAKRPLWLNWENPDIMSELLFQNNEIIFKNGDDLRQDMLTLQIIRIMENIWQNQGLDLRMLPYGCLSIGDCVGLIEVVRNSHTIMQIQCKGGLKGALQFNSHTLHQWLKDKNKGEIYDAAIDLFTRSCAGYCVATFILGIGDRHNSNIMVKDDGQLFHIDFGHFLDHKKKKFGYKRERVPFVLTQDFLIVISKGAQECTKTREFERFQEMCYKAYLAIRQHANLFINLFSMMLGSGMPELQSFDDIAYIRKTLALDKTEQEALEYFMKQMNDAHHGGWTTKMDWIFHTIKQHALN
pIC50: −log10 of the molar value.
measure.name: pIC50

Oc1cccc(-c2nc(N3CCOCC3)nc3c2CCN3c2cccnc2)c1 | 7.39

a. Oc1cccc(-c2nc(N3CCOCC3)nc3c2CCN3c2ccncc2)c1
b. Oc1cccc(-c2nc(N3CCOCC3)nc3c2CCN3c2ccc3nc[nH]c3c2)c1
c. Nc1ncc(-c2nc(N3CCOCC3)nc3c2CCN3c2cccnc2)cn1
INPUT: Hey, can you sort those molecules up there by pIC50, smallest first? Your answer should be the labels, listed in the requested order.
OUTPUT: b, c, a
(b: 7.11, c: 7.48, a: 8.07)
